Reference for the values: patent US20250179073A1

Form field: pIC50 (one value per entry).
tested on: MDA-MB-231 cells; test: Cell proliferation assay (CellTiter-Glo), MDA-MB-231; format: cell-based; conditions: Homo sapiens, MDA-MB-231, 72 h, 72 h treatment, Celltiter-Glo luminescence
Please note pIC50 is a logarithmic value: minus log10 of concentration in mol/L. Answer with that number alone.

1) C[C@@H]1CN(CC(=O)N2CC(C)(C)c3c2cc(Cc2ccc(F)cc2)c2nc(C(=O)NC4CC4)nn32)[C@@H](CN2CCOC[C@H]2C)CN1 | 6.85
2) C[C@@H]1CN(CC(=O)N2CC(C)(C)c3c2cc(Cc2ccc(F)cc2)c2nn(C4CC(C)(O)C4)c(=O)n32)[C@@H](CN2CCOC[C@H]2C)CN1 (stereo partly drawn) | 7.68
3) C[C@@H]1CN(CC(=O)N2CC(C)(C)c3c2cc(N2CCCc4cc(F)ccc42)c2ncnn32)[C@@H](CN2CCOC[C@H]2C)CN1 | 6.72

Quick one: pIC50 of C[C@@H]1CN(CC(=O)N2CC(C)(C)c3c2cc(Cn2ccc(F)cc2=O)c2ncnn32)[C@@H](CN2CCOC[C@H]2C)CN1 ?
5.42

One more molecule: C[C@@H]1CN(CC(=O)N2CC(C)(C)c3c2cc(Cc2ccc(F)cc2)c2nn(CC(F)(F)F)c(=O)n32)[C@@H](CN2CCOC[C@H]2C)CN1
7.57

One more molecule: C[C@@H]1CN(CC(=O)N2CC(C)(C)c3c2cc(Cc2ccc(F)cc2)c2nc(CO)cn32)[C@@H](CN2CCOC[C@H]2C)CN1
6.74

----------
test system: MDA-MB-231 cells; assay: Cell proliferation assay (CellTiter-Glo), MDA-MB-231; type: cell-based; conditions: Homo sapiens, MDA-MB-231, 72 h, 72 h treatment, Celltiter-Glo luminescence
measuredMetric: IC50
Answer format: value, then unit.

Some compounds with known IC50 results, for comparison:
1. C[C@@H]1CN(CC(=O)N2CC(C)(C)c3c2cc(Cc2ccc(F)cc2)c2nc(C(F)F)cn32)[C@@H](CN2CCOC[C@H]2C)CN1 | 0.065 µM
2. C[C@@H]1CN(CC(=O)N2CC(C)(C)c3c2cc(Cc2ccc(F)cc2)c2nc(N4CCOCC4)nn32)[C@@H](CN2CCOC[C@H]2C)CN1 | 0.043 µM

Quick one: IC50 of C[C@@H]1CN(CC(=O)N2CC(C)(C)c3c2cc(Cc2ccc(F)cc2)c2ncnn32)[C@@H](CN2Cc3ncccc3C2=O)CN1 ?
0.012 µM

----------
test system: MDA-MB-231 cells; test: Cell proliferation assay (CellTiter-Glo), MDA-MB-231; format: cell-based; conditions: Homo sapiens, MDA-MB-231, 72 h, 72 h treatment, Celltiter-Glo luminescence
measuredMetric: log10(IC50) (log10 of the value in nM)
In plain terms, each number is the log10 of measured IC50 in nM.

Some compounds with known log10(IC50) results, for comparison:
1. Cc1nc(CO)c2c(Cc3ccc(F)cc3)cc3c(n12)C(C)(C)CN3C(=O)CN1C[C@@H](C)NC[C@@H]1CN1CCOC[C@H]1C [Compound 125] | 2.30
2. CC(C)NC(=O)c1nc2c(Cc3ccc(F)cc3)cc3c(n2n1)C(C)(C)CN3C(=O)CN1C[C@@H](C)NC[C@@H]1CN1CCOC[C@H]1C [Compound 256] | 1.85
3. C[C@@H]1CN(CC(=O)N2CC(C)(C)c3c2cc(Cc2ccc(F)cc2)c2nc(CS(C)(=O)=O)nn32)[C@@H](CN2CCOC[C@H]2C)CN1 [Compound 141] | 2.49
4. C[C@@H]1CN(CC(=O)N2CC(C)(C)c3c2cc(Cc2ccc(F)cc2)c2nc(NC4COC4)nn32)[C@@H](CN2CCOC[C@H]2C)CN1 [Compound 187] | 0.90
5. CC(C)c1nnc2c(Cc3ccc(F)cc3)cc3c(n12)C(C)(C)CN3C(=O)CN1C[C@@H](C)NC[C@@H]1CN1CCOC[C@H]1C [Example 11] | 2.23

Quick one: log10(IC50) of C[C@@H]1CN(CC(=O)N2CC(C)(C)c3c2cc(Cc2ccc(F)cc2)c2nn(Cc4cccnc4)c(=O)n32)[C@@H](CN2CCOC[C@H]2C)CN1 [Compound 245] ?
0.70

One more compound: Cc1nnc2c(Cc3ccc(F)cc3)cc3c(n12)C(C)(C)CN3C(=O)CN1C[C@@H](C)NC[C@@H]1CN1CCOC[C@H]1C [Example 10]
2.54

One more compound: CC(C)c1nc2c(Cc3ccc(F)cc3)cc3c(n2n1)C(C)(C)CN3C(=O)CN1C[C@@H](C)NC[C@@H]1CN1CCOC[C@H]1C [Compound 171]
1.98

One more compound: C[C@@H]1CN(CC(=O)N2CC(C)(C)c3c2cc(Cc2ccc(F)cc2)c2nn(CC(C)(C)O)c(=O)n32)[C@@H](CN2CC(F)(F)C[C@H]2C)CN1 [Compound 288]
1.46

One more compound: C[C@@H]1CN(CC(=O)N2CC(C)(C)c3c2cc(Cc2ccc(F)cc2)c2nc(C(F)(F)F)cn32)[C@@H](CN2[C@H](C)COC[C@H]2C)CN1 [Compound 161]
2.08

One more compound: CC(=O)c1nc2c(Cc3ccc(F)cc3)cc3c(n2n1)C(C)(C)CN3C(=O)CN1C[C@@H](C)NC[C@@H]1CN1CCOC[C@H]1C [Compound 224]
2.08
